- Tested on: IGROV1 ovarian
- assay.info: NCI tumour cell line growth inhibition, 48 h
Exercise: state measured TGI for each of the compounds provided.

Some compounds with known TGI results, for comparison:
compound="O=C1NC2O[C@H](CNC(=O)c3cc(Br)c[nH]3)CC2(O)N1 (mixture of isomers)" measurement_target="IGROV1 ovarian" measured_value="> 100 µM"
compound=CC(C)c1c(O)c(O)c2c(c1O)C(=O)C(O)=C1C(C)(C)CCC[C@@]12C measurement_target="IGROV1 ovarian" measured_value="13.9 µM"
compound=NC(=O)c1cc(Cl)ccc1NC(=O)/C=C/c1ccccc1 measurement_target="IGROV1 ovarian" measured_value="> 100 µM"
compound=O=C(CC(=O)n1nc(-c2ccccc2)c(N=Nc2ccc(Cl)cc2)c1-c1ccccc1)Nc1ccc(Cl)cc1 measurement_target="IGROV1 ovarian" measured_value="> 100 µM"
compound=O=C(NCP(=O)(c1ccccc1)c1ccccc1)OCc1ccccc1 measurement_target="IGROV1 ovarian" measured_value="> 100 µM"

Hello, I would appreciate it if you could give TGI for each entry below.
1. CC12OC(C(=O)C13CC3)C1C(=O)c3ccc4c(ccc5ccccc54)c3C(=O)C12 (centres undefined)
2. CC(=O)OC1C(Oc2c(C)cc3c(c2O)[C@@H](C)CC[C@@H]3[C@@H](C)CCC=C(C)C)OCC(O)C1O (some centres undefined)
3. Clc1ccc(C[P+](c2ccccc2)(c2ccccc2)c2ccccc2)c(Cl)c1
4. CCOC(=O)Cn1c(=O)ccn(COCCO)c1=O
5. COc1cc2c3c(n(CCCN)c(=O)c2cc1OC)-c1ccc(C#N)cc1C3=O
6. CCOC(=O)/C(C)=C(/O)C(=O)OCC
7. Cc1cc(N(CCC#N)CCC#N)ccc1/C=C(\NC(=O)/C=C/c1ccccc1)C(N)=O
8. O=c1cc(-c2ccc(Oc3ccccc3)cc2)[nH]c2cc3c(cc12)OCO3

Result:
> 100 µM
37.9 µM
15.6 µM
> 100 µM
> 100 µM
> 100 µM
> 100 µM
> 100 µM

Hello, I would appreciate it if you could give TGI for each entry below.
1. C=C(C)[C@@H]1CC[C@]2(CO)CC[C@]3(C)[C@H](CC[C@@H]4[C@@]5(C)C=C(C#N)C(=O)C(C)(C)[C@@H]5CC[C@]43C)[C@@H]12
2. COc1ccc2c3c([nH]c2c1[N+](=O)[O-])C(C)N(C)CC3 (centres undefined)
3. Clc1ccc(-c2cc3nc4ccccc4nc3o2)cc1
4. COc1cc2c(cc1OCCCCC(=O)Nc1cc3c4ccccc4ccc3c3ccccc13)N=C[C@@H]1CCCN1C2=O

Result:
1. 4.65 µM
2. > 100 µM
3. > 100 µM
4. > 25.6 µM

Hello, I would appreciate it if you could give TGI for each entry below.
1. Nc1nc(-[n+]2ccc(-c3ccncc3)cc2)nc(Cl)c1Cl
2. CCOC(=O)C1SC(=Nc2ccc(C)c(C)c2)N=C1C (centres undefined)

Result:
1. 33.3 µM
2. > 100 µM

---

Exercise: state measured TGI for each of the compounds provided.
- Tested on: MCF7 breast
- assay.info: NCI tumour cell line growth inhibition, 48 h

Hello, I would appreciate it if you could give TGI for each entry below.
1. c1ccc(CNc2nncc3[nH]cnc23)cc1
2. N#Cc1c(-c2ccccc2)[nH]c2ccc(Cl)cc2c1=O
3. CC(=O)[C@@H](C)C(=O)N1C(=O)OC[C@@]12[C@@H]1CC[C@@H](C1)C2(C)C
4. COc1ccc(C[N+](C)(C)N)cc1OC
5. CC(=O)Nc1ccc(/C=C/c2ccc(NC(=O)Nc3ccc(/C=C/c4ccc(NC(C)=O)cc4S(=O)(=O)O)c(S(=O)(=O)O)c3)cc2S(=O)(=O)O)c(S(=O)(=O)O)c1

Result:
["> 100 µM", "> 100 µM", "> 100 µM", "> 100 µM", "> 100 µM"]

Hello, I would appreciate it if you could give TGI for each entry below.
1. CC(=O)OC1C(Oc2c(C)cc3c(c2O)[C@@H](C)CC[C@@H]3[C@@H](C)CCC=C(C)C)OCC(O)C1O (some centres not stated)
2. COCC[C@H]1CCC/C=C/[C@@H]2C[C@H](O)C[C@H]2[C@H](O)/C=C/C(=O)O1
3. CCCCC(CC)COC(=O)C[N+](C)(C)CCOC(c1ccccc1)c1ccccc1 (configuration not stated)
4. COc1ccc(C(=O)c2cc(C)c(OC)c(C)c2)cc1OC(=O)CCl

Result:
["42.5 µM", "0.171 µM", "4.34 µM", "> 100 µM"]

Hello, I would appreciate it if you could give TGI for each entry below.
1. O=C1c2cccnc2-c2nc(-c3ccc(Cl)cc3)cc3c2c1nc1ccccc13
2. C=C(C)[C@H]1Cc2c(ccc3c2O[C@@H]2COc4cc(OC)c(OC)cc4[C@@H]2C3=O)O1
3. COc1cc(-c2nc3ccccn3c2/N=C/c2cc(Br)cc(Br)c2O)ccc1O

Result:
75.4 µM
> 84.2 µM
53.8 µM

---

- Test system: ACHN renal
- assay.info: NCI tumour cell line growth inhibition, 48 h
readout.label: TGI

Some compounds with known TGI results, for comparison:
compound=CC1(C)C(=O)/C(=C\c2cccnc2)C[C@]2(C)[C@H]3CC[C@@H]4[C@H]5[C@H](C(=O)/C=C/c6cccnc6)CC[C@]5(C(=O)O)CC[C@@]4(C)[C@]3(C)CC[C@@H]12 measured_value="3.06 µM"
compound=Cn1c(O)c(C(=O)NC2CCCCC2)c(=O)n(C)c1=S measured_value="13.7 µM"
compound="COC(=O)c1cc2c(cc1CC(Cc1ccc3c(c1)CCCC3)C(=O)OC)CCCC2 (stereo not drawn)" measured_value="> 100 µM"
compound=CN=C(SC)N(C)c1nc(=[N+](C)C)ss1 measured_value="> 100 µM"
compound=O=C(CC(=O)n1nc(-c2ccccc2)c(N=Nc2ccc(Cl)cc2)c1-c1ccccc1)Nc1ccc(Cl)cc1 measured_value="> 100 µM"
compound=C=C(C)CCN[Si](c1ccccc1)(c1ccccc1)C(C)(C)C measured_value="> 100 µM"
compound=CCOC(=O)c1cc2c3ccn(Cc4ccccc4)c3c3c(C)[nH]oc3c2n1 measured_value="> 100 µM"
compound=CC(C)c1ccc(-c2cc(-c3cn[nH]c3-c3ccccn3)ccn2)cc1 measured_value="> 25 µM"
compound="C=CCCC1(CC(Sc2ccccc2)P(=O)(c2ccccc2)c2ccccc2)OCCO1 (stereo not drawn)" measured_value="> 10 µM"
compound=O=C(Nc1ccccc1-c1nc2ccccc2[nH]c1=O)c1ccccc1 measured_value="45 µM"

Hello, I would appreciate it if you could give TGI for each entry below.
1. COc1cc(OC)c(C(=O)/C=C/c2cccc(C(F)(F)F)c2)c(OC)c1
2. Cc1ccc(N=C/C=C(\Nc2ccc(C)cc2)c2ccc(Cl)cc2)cc1
3. O=[N+]([O-])c1ccc(S(=O)(=O)n2c3ccc(Br)cc3c3nc4ccccc4nc32)cc1

Result:
5.17 µM
> 100 µM
> 100 µM

---

- Test system: RPMI-8226 leukemia
- assay.info: NCI tumour cell line growth inhibition, 48 h
readout.label: TGI

Some molecules with known TGI results, for comparison:
smiles_notation=COc1ccc(C[N+](C)(C)N)cc1OC measurement_target="RPMI-8226 leukemia" measured_value="> 100 µM"
smiles_notation=O=C(CC(=O)n1nc(-c2ccccc2)c(N=Nc2ccc(Cl)cc2)c1-c1ccccc1)Nc1ccc(Cl)cc1 measurement_target="RPMI-8226 leukemia" measured_value="> 64.6 µM"

Attention now shifts to the item below.
# Cc1ccc(N=C/C=C(\Nc2ccc(C)cc2)c2ccc(Cl)cc2)cc1 with RPMI-8226 leukemia: TGI is > 100 µM

---

- Test system: HCT-15 colon
- assay.info: NCI tumour cell line growth inhibition, 48 h
readout.label: TGI

Hello, I would appreciate it if you could give TGI for each entry below.
1. N#C[C@@H](c1ccccn1)c1ncccc1[N+](=O)[O-]
2. CCO/C=N\C1=C(C#N)SC2=N/C(=C\c3ccc(OC)cc3)C(=O)N21
3. COc1cc2ncnc(-n3ncc4cc(NC(=O)Nc5ccccc5)ccc43)c2cc1OC
4. Cc1ccc(NC(=O)c2cccc(C(C)(C)C#N)c2)cc1Nc1ccc2ncn(C)c(=O)c2c1

Result:
1. > 100 µM
2. > 100 µM
3. 11.1 µM
4. > 100 µM

---

- System: MDA-MB-231 breast
- assay.info: NCI tumour cell line growth inhibition, 48 h
Exercise: state measured GI50 for each of the compounds provided.

Hello, I would appreciate it if you could give GI50 for each entry below.
1. NS(=O)(=O)c1ccc(-c2ccc3c(NC(=O)C4CC4)n[nH]c3c2)cc1
2. Cc1ccc(N=C/C=C(\Nc2ccc(C)cc2)c2ccc(Cl)cc2)cc1

Result:
["> 25 µM", "11.2 µM"]

Record COc1ccc(C(=O)c2cc(OC)c(OC)c(OC)c2)cc1/C=C/C(=O)c1ccc(F)cc1 , field GI50: 4.72 µM
